KA: recorded values
biological target: Carbonic anhydrase 12 (Homo sapiens) (UniProt O43570); assay: Activation of human recombinant CA12 catalytic domain by stopped-flow CO2 hydration method
Sequence (O43570 whole entry, the tested form may be a part): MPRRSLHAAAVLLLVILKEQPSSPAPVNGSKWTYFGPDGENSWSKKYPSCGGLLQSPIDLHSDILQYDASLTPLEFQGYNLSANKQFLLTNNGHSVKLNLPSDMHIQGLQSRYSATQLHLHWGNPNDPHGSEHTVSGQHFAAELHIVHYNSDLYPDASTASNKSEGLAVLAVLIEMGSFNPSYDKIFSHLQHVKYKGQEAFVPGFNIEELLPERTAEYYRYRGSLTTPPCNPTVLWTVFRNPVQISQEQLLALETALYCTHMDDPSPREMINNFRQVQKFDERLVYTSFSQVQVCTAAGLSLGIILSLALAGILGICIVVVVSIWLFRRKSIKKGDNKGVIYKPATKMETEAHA
Give a bare numeral; the unit µM is implied.

Query :: Return reported KA; argument: `NCCc1ccc(O)c(O)c1`
Result :: 0.67

Query :: Return reported KA; argument: `Nc1ccc(C[C@H](N)C(=O)O)cc1`
Result :: 1.09

Query :: Return reported KA; argument: `N[C@@H](Cc1c[nH]cn1)C(=O)O`
Result :: 37.5

Query :: Return reported KA; argument: `N[C@@H](Cc1c[nH]c2ccccc12)C(=O)O`
Result :: 26

Query :: Return reported KA; argument: CNCC(O)c1ccc(O)c(O)c1 (single isomer, unassigned)
Result :: 0.41

Query :: Return reported KA; argument: `NCc1ccccn1`
Result :: 41.5

Query :: Return reported KA; argument: `N[C@@H](Cc1ccc(O)cc1)C(=O)O`
Result :: 25.8

Query :: Return reported KA; argument: `N[C@H](Cc1c[nH]c2ccccc12)C(=O)O`
Result :: 28.1

Query :: Return reported KA; argument: `N[C@H](Cc1ccc(O)c(O)c1)C(=O)O`
Result :: 0.89

Query :: Return reported KA; argument: `N[C@H](Cc1c[nH]cn1)C(=O)O`
Result :: 24.7

Query :: Return reported KA; argument: `NCCc1ccccn1`
Result :: 0.69

Query :: Return reported KA; argument: `NCCN1CCNCC1`
Result :: 48.3
